System: RXRa DBDmut IVT, anti-RXR (DBD mutation: RXRa K156A/R161A, NR concentration 90 nM)
Assay: PBM binding z-score (relative to random genomic background probes); higher = stronger binding; sequences stand for … in GC…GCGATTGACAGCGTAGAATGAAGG
observable: PBM binding z-score

Go through the items and report each one's PBM binding z-score.
1. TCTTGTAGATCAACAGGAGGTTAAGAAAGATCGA
2. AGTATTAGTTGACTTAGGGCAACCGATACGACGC
3. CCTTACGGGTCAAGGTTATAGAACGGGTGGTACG
4. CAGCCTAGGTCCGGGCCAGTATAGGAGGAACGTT
5. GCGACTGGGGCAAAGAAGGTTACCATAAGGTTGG
6. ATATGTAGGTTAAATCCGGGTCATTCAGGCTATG
7. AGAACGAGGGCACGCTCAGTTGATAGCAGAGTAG

Response given:
1: 0.35; 2: 0.0389; 3: 0.482; 4: -1.37; 5: -0.00563; 6: 1.1; 7: 1.94

Go through the items and report each one's PBM binding z-score.
1. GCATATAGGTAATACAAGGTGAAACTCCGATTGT
2. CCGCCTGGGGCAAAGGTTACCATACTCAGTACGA
3. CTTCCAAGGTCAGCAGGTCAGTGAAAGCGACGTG
4. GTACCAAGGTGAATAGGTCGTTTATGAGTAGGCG
5. GCTGCCAGGTCAGGTTGGTCAGCTAACGGGTACG
6. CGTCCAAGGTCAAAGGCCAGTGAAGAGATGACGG
7. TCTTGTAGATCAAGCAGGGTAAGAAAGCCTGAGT

Response given:
0.602
-0.0654
2.24
0.0866
0.47
3.33
0.436

* * *

Tested on: PPARa:RXRa (NR concentration 270 nM, RXRa partner concentration 90 nM)
Experiment: PBM binding z-score (relative to random genomic background probes); higher = stronger binding; sequences stand for … in GC…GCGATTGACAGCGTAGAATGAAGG
observable: PBM binding z-score
Answers are plain numbers.

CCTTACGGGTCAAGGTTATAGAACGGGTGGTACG; 5.1

Go through the items and report each one's PBM binding z-score.
1. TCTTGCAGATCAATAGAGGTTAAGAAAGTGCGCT
2. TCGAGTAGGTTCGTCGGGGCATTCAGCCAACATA
3. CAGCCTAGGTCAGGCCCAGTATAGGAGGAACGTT

Response given:
1: 1.9; 2: 0.757; 3: 1.45

Go through the items and report each one's PBM binding z-score.
1. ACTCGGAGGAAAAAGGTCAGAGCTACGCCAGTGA
2. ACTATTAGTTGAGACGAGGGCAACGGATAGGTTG
3. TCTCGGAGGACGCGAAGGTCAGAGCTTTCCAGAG
4. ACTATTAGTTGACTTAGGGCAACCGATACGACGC
5. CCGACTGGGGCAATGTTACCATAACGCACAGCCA
6. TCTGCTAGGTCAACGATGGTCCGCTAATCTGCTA
7. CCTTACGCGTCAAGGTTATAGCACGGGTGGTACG
8. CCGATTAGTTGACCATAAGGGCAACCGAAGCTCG

Response given:
1: 3.73; 2: 0.0596; 3: 1.69; 4: 0.0707; 5: 0.11; 6: 3; 7: 1.14; 8: 0.52

Go through the items and report each one's PBM binding z-score.
1. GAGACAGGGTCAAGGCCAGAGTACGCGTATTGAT
2. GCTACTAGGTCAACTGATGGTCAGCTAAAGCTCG

Response given:
1. 5.24
2. 4.47

* * *

Exercise: state measured PBM binding z-score for each of the sequences provided.
Test system: PPARg:RXRa (NR concentration 180 nM, RXRa partner concentration 90 nM)
Test: PBM binding z-score (relative to random genomic background probes); higher = stronger binding; sequences stand for … in GC…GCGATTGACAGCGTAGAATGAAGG
Numbers only.

Example entries begin here.
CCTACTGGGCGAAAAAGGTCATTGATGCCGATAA; 1.67
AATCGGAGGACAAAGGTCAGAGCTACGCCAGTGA; 8.17
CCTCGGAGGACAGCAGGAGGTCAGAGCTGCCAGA; -0.245
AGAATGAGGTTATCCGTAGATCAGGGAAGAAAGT; 1.63
ACTAGCAGGCCAAGCGTCACTCAAGATTAGTCCG; 1.12

Go through the items and report each one's PBM binding z-score.
1. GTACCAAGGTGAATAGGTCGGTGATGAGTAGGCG
2. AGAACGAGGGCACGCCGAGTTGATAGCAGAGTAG
3. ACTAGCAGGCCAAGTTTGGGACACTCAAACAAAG
4. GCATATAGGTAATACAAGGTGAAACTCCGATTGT

Response given:
1.24
2.1
0.0502
1.5

* * *

Tested on: PPARa:RXRa (NR concentration 270 nM, RXRa partner concentration 90 nM)
Assay: PBM binding z-score (relative to random genomic background probes); higher = stronger binding; sequences stand for … in GC…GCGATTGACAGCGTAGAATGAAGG
1 means recorded PBM binding z-score is 2 or above; 0 means it is below 2.

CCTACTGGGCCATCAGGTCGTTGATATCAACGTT; 0

Please look at the following sequence next.
Challenge: Evaluate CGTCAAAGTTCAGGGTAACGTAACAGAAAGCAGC : PBM binding z-score at minimum 2?
Response given: 1

* * *

Test system: PPARg:RXRa (NR concentration 180 nM, RXRa partner concentration 90 nM)
Assay: PBM binding z-score (relative to random genomic background probes); higher = stronger binding; sequences stand for … in GC…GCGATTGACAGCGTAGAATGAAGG
Exercise: state measured PBM binding z-score for each of the sequences provided.
Numbers only.

Example entries begin here.
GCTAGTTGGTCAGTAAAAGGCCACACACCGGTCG; 0.521
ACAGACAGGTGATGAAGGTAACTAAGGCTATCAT; 0.606
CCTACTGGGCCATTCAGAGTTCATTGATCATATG; 1.04
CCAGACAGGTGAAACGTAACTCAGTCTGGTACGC; 0.947
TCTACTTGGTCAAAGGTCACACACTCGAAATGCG; 11.9

Go through the items and report each one's PBM binding z-score.
1. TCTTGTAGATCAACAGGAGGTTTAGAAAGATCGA
2. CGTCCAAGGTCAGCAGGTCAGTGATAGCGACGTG
3. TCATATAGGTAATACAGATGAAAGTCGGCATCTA

Response given:
[-0.195, 4.13, 1.47]

* * *

Test system: VDR homodimer (NR concentration 270 nM)
Test: PBM binding z-score (relative to random genomic background probes); higher = stronger binding; sequences stand for … in GC…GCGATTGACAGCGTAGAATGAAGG
MET means recorded PBM binding z-score is 0.8 or above; NOT MET means it is below 0.8.

Challenge: Evaluate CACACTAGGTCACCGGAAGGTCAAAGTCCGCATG : PBM binding z-score at minimum 0.8?
Response given: MET

Challenge: Evaluate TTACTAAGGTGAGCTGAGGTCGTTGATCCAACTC : PBM binding z-score at minimum 0.8?
Response given: MET

Challenge: Evaluate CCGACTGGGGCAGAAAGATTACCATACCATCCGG : PBM binding z-score at minimum 0.8?
Response given: NOT MET

Challenge: Evaluate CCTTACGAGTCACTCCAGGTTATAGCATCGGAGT : PBM binding z-score at minimum 0.8?
Response given: MET

Challenge: Evaluate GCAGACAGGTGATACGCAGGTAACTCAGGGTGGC : PBM binding z-score at minimum 0.8?
Response given: NOT MET

Challenge: Evaluate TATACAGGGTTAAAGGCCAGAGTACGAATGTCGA : PBM binding z-score at minimum 0.8?
Response given: MET

Challenge: Evaluate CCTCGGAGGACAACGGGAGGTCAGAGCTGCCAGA : PBM binding z-score at minimum 0.8?
Response given: MET

Challenge: Evaluate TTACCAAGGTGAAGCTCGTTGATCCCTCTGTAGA : PBM binding z-score at minimum 0.8?
Response given: NOT MET

* * *

Tested on: RARa homodimer (NR concentration 270 nM)
Experiment: PBM binding z-score (relative to random genomic background probes); higher = stronger binding; sequences stand for … in GC…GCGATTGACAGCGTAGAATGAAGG
Exercise: state measured PBM binding z-score for each of the sequences provided.
Give bare numbers.

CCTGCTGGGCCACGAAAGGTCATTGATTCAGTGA; 2.23

Go through the items and report each one's PBM binding z-score.
1. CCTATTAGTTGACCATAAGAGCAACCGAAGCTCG
2. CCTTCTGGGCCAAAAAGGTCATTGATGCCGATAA
3. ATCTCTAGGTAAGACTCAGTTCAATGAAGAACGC
4. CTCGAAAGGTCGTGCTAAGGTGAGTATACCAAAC

Response given:
1: 2.97; 2: 1.14; 3: 1.4; 4: 0.258

Go through the items and report each one's PBM binding z-score.
1. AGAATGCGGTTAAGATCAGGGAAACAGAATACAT
2. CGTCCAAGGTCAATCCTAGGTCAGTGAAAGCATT
3. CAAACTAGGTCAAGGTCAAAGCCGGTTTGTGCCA

Response given:
1: 0.513; 2: 1.8; 3: 0.855

Go through the items and report each one's PBM binding z-score.
1. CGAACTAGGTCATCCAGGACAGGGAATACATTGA
2. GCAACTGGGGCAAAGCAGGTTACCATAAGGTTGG
3. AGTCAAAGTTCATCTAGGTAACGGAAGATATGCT
4. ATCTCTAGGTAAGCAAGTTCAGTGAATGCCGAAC
5. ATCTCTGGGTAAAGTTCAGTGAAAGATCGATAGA
6. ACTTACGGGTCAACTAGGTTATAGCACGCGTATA
7. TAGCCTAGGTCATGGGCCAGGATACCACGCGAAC
8. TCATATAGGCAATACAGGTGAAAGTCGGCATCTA

Response given:
1. 0.244
2. -0.392
3. 2.15
4. 0.268
5. 1.47
6. 1.54
7. -0.123
8. 0.869

Go through the items and report each one's PBM binding z-score.
1. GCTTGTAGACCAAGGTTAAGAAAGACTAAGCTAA
2. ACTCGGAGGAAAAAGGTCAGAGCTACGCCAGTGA
3. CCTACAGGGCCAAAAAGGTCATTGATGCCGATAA
4. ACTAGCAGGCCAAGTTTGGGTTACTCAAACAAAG
5. TAGCCTAGGTCTTGCGGGCCAGTATAGTGTCGGC
6. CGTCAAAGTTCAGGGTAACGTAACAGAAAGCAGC

Response given:
1: 0.313; 2: 1.23; 3: 1.42; 4: -0.953; 5: -1.17; 6: 1.09

// provenance: the supplement of paper PMC6555819
